target_desc: Serine/threonine-protein kinase mTOR (Homo sapiens)
assay_overview: Inhibition of recombinant human N-terminal FLAG-tagged mTOR (1362 to end residues) expressed in baculovirus infected Sf21 insect cells assessed as reduction in ULight-4E-BP1 phosphorylation after 30 mins by lance ultra assay
Would you mind telling me the reported pIC50 of each entry?
Schema: pIC50 number; meaning minus log10 of the concentration expressed in molar units.

For `C[C@@H]1CN(c2nc(N3CCOCC3)c3sc(-c4ccc(N)nc4)cc3n2)C[C@H](C)O1` , what is its reported pIC50? 7.15

Query (molecule): `C[C@@H]1CN(c2nc(N3CCOCC3)c3sc(-c4ccoc4)cc3n2)C[C@H](C)O1` ; field requested: pIC50 6.65

Name the recorded pIC50 for `C[C@@H]1CN(c2nc(N3CCOCC3)c3sc(-c4ccccn4)cc3n2)C[C@H](C)O1` . 6.57

###

target_desc: PI3-kinase p110-alpha/p85-alpha (Homo sapiens)
Sequence (P27986 whole entry): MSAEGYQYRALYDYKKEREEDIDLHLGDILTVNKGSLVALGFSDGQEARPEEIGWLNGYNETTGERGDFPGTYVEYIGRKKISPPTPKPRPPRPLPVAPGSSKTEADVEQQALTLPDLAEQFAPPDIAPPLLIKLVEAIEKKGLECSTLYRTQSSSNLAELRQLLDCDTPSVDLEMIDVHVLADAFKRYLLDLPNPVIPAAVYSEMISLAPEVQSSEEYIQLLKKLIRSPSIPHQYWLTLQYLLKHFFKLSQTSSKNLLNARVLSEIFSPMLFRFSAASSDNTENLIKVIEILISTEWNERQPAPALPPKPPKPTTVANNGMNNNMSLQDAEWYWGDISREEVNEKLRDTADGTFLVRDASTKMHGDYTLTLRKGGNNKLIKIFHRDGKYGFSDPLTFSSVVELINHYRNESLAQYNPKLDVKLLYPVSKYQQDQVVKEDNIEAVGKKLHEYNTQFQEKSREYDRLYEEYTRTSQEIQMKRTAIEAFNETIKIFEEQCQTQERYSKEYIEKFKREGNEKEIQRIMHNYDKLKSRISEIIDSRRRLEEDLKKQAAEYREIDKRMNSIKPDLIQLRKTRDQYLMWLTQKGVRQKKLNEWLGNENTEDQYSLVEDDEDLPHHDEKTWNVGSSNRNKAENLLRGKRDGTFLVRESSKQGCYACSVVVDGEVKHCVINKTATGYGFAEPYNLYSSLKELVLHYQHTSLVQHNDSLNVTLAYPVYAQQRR
Sequence (P42336 whole entry): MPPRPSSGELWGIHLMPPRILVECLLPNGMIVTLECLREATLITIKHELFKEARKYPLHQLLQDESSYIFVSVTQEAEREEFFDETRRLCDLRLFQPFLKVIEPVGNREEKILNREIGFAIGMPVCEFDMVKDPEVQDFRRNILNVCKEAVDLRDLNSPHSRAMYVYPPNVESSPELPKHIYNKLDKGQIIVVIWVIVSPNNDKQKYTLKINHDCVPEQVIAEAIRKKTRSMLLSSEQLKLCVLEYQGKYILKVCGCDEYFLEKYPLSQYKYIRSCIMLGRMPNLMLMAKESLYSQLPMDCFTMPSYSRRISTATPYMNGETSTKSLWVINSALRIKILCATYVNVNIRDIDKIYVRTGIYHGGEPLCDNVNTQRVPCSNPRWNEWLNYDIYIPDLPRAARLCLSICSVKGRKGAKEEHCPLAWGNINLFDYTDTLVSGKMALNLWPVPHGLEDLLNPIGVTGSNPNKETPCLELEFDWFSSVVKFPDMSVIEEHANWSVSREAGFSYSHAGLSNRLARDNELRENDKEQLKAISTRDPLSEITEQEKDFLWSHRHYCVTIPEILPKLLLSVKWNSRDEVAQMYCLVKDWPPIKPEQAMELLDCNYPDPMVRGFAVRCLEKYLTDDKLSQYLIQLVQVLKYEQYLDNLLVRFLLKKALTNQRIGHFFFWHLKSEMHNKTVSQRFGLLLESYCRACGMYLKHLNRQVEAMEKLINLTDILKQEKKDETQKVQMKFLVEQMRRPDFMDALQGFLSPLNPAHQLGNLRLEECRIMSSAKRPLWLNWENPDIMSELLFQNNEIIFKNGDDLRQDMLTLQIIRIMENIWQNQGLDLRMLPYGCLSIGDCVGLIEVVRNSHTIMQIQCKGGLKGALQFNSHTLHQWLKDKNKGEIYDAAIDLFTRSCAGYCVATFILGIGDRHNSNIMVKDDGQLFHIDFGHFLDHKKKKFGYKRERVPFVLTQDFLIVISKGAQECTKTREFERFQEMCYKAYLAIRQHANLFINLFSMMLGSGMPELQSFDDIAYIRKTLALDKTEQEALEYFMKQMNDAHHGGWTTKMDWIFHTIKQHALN
assay_overview: Inhibition of full length recombinant human N-terminal His-tagged PI3K p110alpha/p85alpha expressed in baculovirus using PIP2 as substrate after 1 hr by kinase-glo luminescence assay
quantity_name: log10(IC50) (log10 of the value in nM)
Hey, these are logged values: log10 of IC50, nM being the unit before logging.

Consider the compound shown here: CC(O)c1cc2nc(N3C[C@@H](C)O[C@@H](C)C3)nc(N3CCOCC3)c2s1 (stereo not given in full) What is its recorded log10(IC50)? 2.09

Looking for the measured log10(IC50) of `CC(=O)c1cc2nc(N3CCOCC3)nc(N3CCOCC3)c2s1` , can you help? 2.83

Consider the compound `OCc1cc2nc(N3CCOc4ccccc43)nc(N3CCOCC3)c2s1` and give its measured log10(IC50). 2.83

Item under review: C[C@@H]1CN(c2nc(N3CCOCC3)c3sc(C(O)Cc4ccccc4)cc3n2)C[C@H](C)O1 (stereo not given in full) . Reported log10(IC50)? 3.31

Which log10(IC50) is reported for this compound? `C[C@@H]1CN(c2nc(N3CCOCC3)c3sc(-c4ccc(N)nc4)cc3n2)C[C@H](C)O1` 2.22

Recorded log10(IC50) for `C[C@@H]1CN(c2nc(N3CCOCC3)c3sc(-c4ccoc4)cc3n2)C[C@H](C)O1` , please? 3.55

Fill blank: measured log10(IC50) of the compound `C[C@@H]1COCCN1c1nc(N2CCOCC2)c2sc(CO)cc2n1` is ____. 2.48

Entry under review: `CS(=O)(=O)N1CCN(c2nc(N3CCOCC3)c3sc(CO)cc3n2)CC1` . Reported log10(IC50)? 2.45

Entry `CN1CCN(c2nc(N3CCOCC3)c3sc(CO)cc3n2)CC1` : reported log10(IC50) = ? 3.01

###

target_desc: Serine/threonine-protein kinase mTOR (Homo sapiens, UniProt P42345)
assay_overview: Inhibition of recombinant human N-terminal FLAG-tagged mTOR (1362 to end residues) expressed in baculovirus infected Sf21 insect cells assessed as reduction in ULight-4E-BP1 phosphorylation after 30 mins by lance ultra assay
pIC50: −log10 of the molar value.
I'd be grateful if you could share measured pIC50 for these entries.

What is its pIC50 for Serine/threonine-protein kinase mTOR (Homo sapiens, UniProt P42345)? Entry: `c1cc2nc(N3CCOCC3)nc(N3CCOCC3)c2s1` < 5.70

Lookup: pIC50 / Serine/threonine-protein kinase mTOR (Homo sapiens, UniProt P42345) / `C[C@@H]1CN(c2nc(N3CCOCC3)c3sc(-c4ccccc4)cc3n2)C[C@H](C)O1` < 5.70

What reported pIC50 corresponds to `CC(=O)c1cc2nc(N3CCOCC3)nc(N3CCOCC3)c2s1` on Serine/threonine-protein kinase mTOR (Homo sapiens, UniProt P42345)? < 5.70

Write down the reported pIC50 of `C[C@@H]1COCCN1c1nc(N2CCOCC2)c2sc(CO)cc2n1` , test system: Serine/threonine-protein kinase mTOR (Homo sapiens, UniProt P42345). 6.47

Notebook: pull reported pIC50 for Serine/threonine-protein kinase mTOR (Homo sapiens, UniProt P42345), entry `C[C@@H]1CN(c2nc(N3CCOCC3)c3sc(-c4ccncc4)cc3n2)C[C@H](C)O1` < 5.70

Please provide the recorded pIC50 for `CN1CCN(c2nc(N3CCOCC3)c3sc(CO)cc3n2)CC1` , tested on Serine/threonine-protein kinase mTOR (Homo sapiens, UniProt P42345). < 5.70

Under Serine/threonine-protein kinase mTOR (Homo sapiens, UniProt P42345): pIC50 value of `OCc1cc2nc(N3CCOc4ccccc43)nc(N3CCOCC3)c2s1` ? 6.47

Request body: readout pIC50, system Serine/threonine-protein kinase mTOR (Homo sapiens, UniProt P42345), query `O=C(O)c1cc2nc(N3CCOCC3)nc(N3CCOCC3)c2s1` . Return the value. < 5.70

Param readout = pIC50; param system = Serine/threonine-protein kinase mTOR (Homo sapiens, UniProt P42345); param query = `C[C@@H]1CN(c2nc(N3CCOCC3)c3sc(-c4ccc[nH]4)cc3n2)C[C@H](C)O1` ; response: value 6.76

Request: pIC50, test system Serine/threonine-protein kinase mTOR (Homo sapiens, UniProt P42345), entry C[C@@H]1CN(c2nc(N3CCOCC3)c3sc(C(O)Cc4ccccc4)cc3n2)C[C@H](C)O1 (stereo partly specified) < 5.70

What pIC50 appears in the records for this compound with Serine/threonine-protein kinase mTOR (Homo sapiens, UniProt P42345)? `Cc1c(-c2ccn[nH]2)sc2c(N3CCOCC3)nc(N3C[C@@H](C)O[C@@H](C)C3)nc12` 7.14

# get_value(readout= pIC50, system= Serine/threonine-protein kinase mTOR (Homo sapiens, UniProt P42345)) for `C[C@@H]1CN(c2nc(N3CCOCC3)c3sc(-c4ccnn4C)cc3n2)C[C@H](C)O1` < 5.70

I'm curious: which pIC50 was measured for `OCc1cc2nc(N3CCSCC3)nc(N3CCOCC3)c2s1` tested on Serine/threonine-protein kinase mTOR (Homo sapiens, UniProt P42345)? 6.22

Look up pIC50 with Serine/threonine-protein kinase mTOR (Homo sapiens, UniProt P42345) for this compound: `C[C@@H]1CN(c2nc(N3CCOCC3)c3sc(-c4cnc(N)nc4)cc3n2)C[C@H](C)O1` 6.37

Item `C[C@@H]1CN(c2nc(N3CCOCC3)c3sc(-c4cncnc4)cc3n2)C[C@H](C)O1` with Serine/threonine-protein kinase mTOR (Homo sapiens, UniProt P42345) - pIC50? < 5.70

So what pIC50 did `C[C@@H]1CN(c2nc(N3CCOCC3)c3sc(-c4cnn(C)c4)cc3n2)C[C@H](C)O1` get with Serine/threonine-protein kinase mTOR (Homo sapiens, UniProt P42345)? < 5.70

Find the measured pIC50: item `CS(=O)(=O)N1CCN(Cc2cc3nc(N4CCOCC4)nc(N4CCOCC4)c3s2)CC1` , target or system Serine/threonine-protein kinase mTOR (Homo sapiens, UniProt P42345). < 5.70

Find the measured pIC50: item `C[C@@H]1CN(c2nc(N3CCOCC3)c3sc(-c4cccnc4)cc3n2)C[C@H](C)O1` , target or system Serine/threonine-protein kinase mTOR (Homo sapiens, UniProt P42345). 6.21

// lookup pIC50 | system=Serine/threonine-protein kinase mTOR (Homo sapiens, UniProt P42345) | key= `c1nc2c(N3CCOCC3)nc(N3CCOCC3)nc2[nH]1` < 5.70

Observed pIC50 on Serine/threonine-protein kinase mTOR (Homo sapiens, UniProt P42345) for `C[C@@H]1CN(c2nc(N3CCOCC3)c3sc(CO)cc3n2)C[C@H](C)O1` , please. 6.33

Request: pIC50, test system Serine/threonine-protein kinase mTOR (Homo sapiens, UniProt P42345), entry `COc1ccc(-c2cc3nc(N4C[C@@H](C)O[C@@H](C)C4)nc(N4CCOCC4)c3s2)cn1` < 5.70
